TARGET_OR_TEST_SYSTEM: T1, human ASGR-1 (wild type) (human, UniProt P07306 1-291)
T1 construct: also called wt ASGR1; huASGR-1
T1 sequence: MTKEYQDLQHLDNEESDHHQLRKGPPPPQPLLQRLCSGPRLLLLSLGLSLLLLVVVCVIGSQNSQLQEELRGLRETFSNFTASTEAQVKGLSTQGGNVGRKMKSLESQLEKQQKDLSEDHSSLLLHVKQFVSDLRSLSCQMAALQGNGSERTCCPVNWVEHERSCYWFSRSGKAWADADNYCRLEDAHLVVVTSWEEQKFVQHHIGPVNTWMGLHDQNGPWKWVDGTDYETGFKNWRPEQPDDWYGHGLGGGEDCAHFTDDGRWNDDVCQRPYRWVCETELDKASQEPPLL
EXPERIMENT_SUMMARY: FACS ratio: 65C12 geomean / this mAb geomean
PARAMETER_MEASURED: Expression Normalization to mAb 65C12
When you answer, write just the number.

BINDER	Expression Normalization to mAb 65C12
6G7 (antibody, V domains shown, mAb) VH: QVQLVESGGGVVQPGRSLRLSCAASGFTFSSYGMHWVRQTPGKGLEWVAIISYVGKNKYYADSVKGRFTISRDNSKNTLYLQMNSLRAEDTAVYYCARRGNSYGGYGMDVWGQGTTVTVSS VL: DIQMTQSPSSRSASVGDRVTITCQASQDISNYLNWCQQKPGKALKLLIYDASTLETGVPSRFSGSGSGTDFTFTISSVQPEDIATYYCQQYDNVPITFGQGTRLEIK	1.45
193E7 (antibody, V domains shown, mAb) VH: QVQLQQWGAGLLKPSETLSLTCAVYGGSFSGYFWTWIRQPPGKGLEWIGEINHSGSTNYNPSLKSRVTISVDTSKNQFSLKLSSVTAADTAVYYCARDYGADYWGQGTLVAVSA VL: DIQMTQSPSSLSASVGDRVTITCRASQGIRNDLGWYQQKPGKAPKRLIYSASSLQRGVPSRFSGSGSGTEFTLTISSLQPEDFATYYCLQHKRYPLTFGGGTKVEIK	1.58

Next:
QUERY: // lookup Expression Normalization to mAb 65C12 for 194C10 (antibody, V domains shown, mAb) VH: QVQLQQWGAGLLKPSETLSLTCAVSGGSFRYYYWSWIRQPPGKGLEWFGEINHSGSTNYNPSLKSRVTISIDTSKNQFSLKLRSVTAADTAVYYCARDYGAFDIWGQGTMVTVSS VL: EIVLTQSPGTLSLSPGERATLSCRASPSVNSGYLAWYQQKPGQTPRLLIFGASSRATGIPDRFSASGSGADFTLTISRLEPEDFAVYFCQQYESSPWTFGQGTKVEIK
RESULT: 1.99
